# subjectOfTest: T1, mouse programmed cell death protein 1 Fc fusion protein (mPD-1-Fc), mPD-1 C60S (aa 25-167) (Mus musculus, UniProt Q02242, stabilised)
# T1 construct: not cleaved; source: Expi293F, purified (Protein A, SEC; dimeric fraction); not shown: Fc (human), C-terminal, kept
# testDetails: SPR; Carterra LSA; Fab from the ammonium sulfate precipitate of the culture supernatant immobilised on a NiHC200M chip; hPD-1 (1-1024 nM) or mPD-1-Fc (4-1024 nM) as analyte, fourfold dilution series, no regeneration; HBS-EP pH 7.4, 25 °C; medians over the spots of a construct, KD = koff/kon
# experimentalConditions: one partner purified
Consider the following binders; for each one, report its Kd.
Numbers only; they are read as nM.

## Task Fill in: Kd of toripalimab Fab L.S32A (Fab, V domains shown, as the heavy chain of Sm3; light chain of Sm3 with this change; numbers count from the chain's first residue; source: Brevibacillus, culture supernatant (ammonium sulfate precipitate); not shown: 6xHis, C-terminal, kept; 6xHN, C-terminal, kept) VH: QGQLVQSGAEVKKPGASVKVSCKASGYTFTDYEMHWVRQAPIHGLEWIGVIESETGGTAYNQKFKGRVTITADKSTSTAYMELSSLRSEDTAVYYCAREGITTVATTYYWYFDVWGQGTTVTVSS VL: DVVMTQSPLSLPVTLGQPASISCRSSQSIVHANGNTYLEWYLQKPGQSPQLLIYKVSNRFSGVPDRFSGSGSGTDFTLKISRVEAEDVGVYYCFQGSHVPLTFGQGTKLEIK is ___
## Result 185

## Task // same read-out, input: toripalimab Fab L.S32Y (Fab, V domains shown, as the heavy chain of Sm3; light chain of Sm3 with this change; numbers count from the chain's first residue; source: Brevibacillus, culture supernatant (ammonium sulfate precipitate); not shown: 6xHis, C-terminal, kept; 6xHN, C-terminal, kept) VH: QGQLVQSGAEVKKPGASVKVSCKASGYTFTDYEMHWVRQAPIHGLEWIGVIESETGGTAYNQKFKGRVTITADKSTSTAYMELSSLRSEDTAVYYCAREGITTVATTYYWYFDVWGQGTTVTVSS VL: DVVMTQSPLSLPVTLGQPASISCRSSQSIVHYNGNTYLEWYLQKPGQSPQLLIYKVSNRFSGVPDRFSGSGSGTDFTLKISRVEAEDVGVYYCFQGSHVPLTFGQGTKLEIK
## Result 95.6

## Task // same read-out, input: toripalimab Fab L.N35Y (Fab, V domains shown, as the heavy chain of Sm3; light chain of Sm3 with this change; numbers count from the chain's first residue; source: Brevibacillus, culture supernatant (ammonium sulfate precipitate); not shown: 6xHis, C-terminal, kept; 6xHN, C-terminal, kept) VH: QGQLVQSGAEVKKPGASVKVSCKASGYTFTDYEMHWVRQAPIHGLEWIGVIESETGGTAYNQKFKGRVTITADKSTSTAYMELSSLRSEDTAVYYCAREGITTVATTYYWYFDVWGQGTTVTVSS VL: DVVMTQSPLSLPVTLGQPASISCRSSQSIVHSNGYTYLEWYLQKPGQSPQLLIYKVSNRFSGVPDRFSGSGSGTDFTLKISRVEAEDVGVYYCFQGSHVPLTFGQGTKLEIK
## Result 194

## Task // same read-out, input: toripalimab Fab H.F64Y (Fab, V domains shown, heavy chain of Sm3 with this change; numbers count from the chain's first residue; as the light chain of Sm3; source: Brevibacillus, culture supernatant (ammonium sulfate precipitate); not shown: 6xHis, C-terminal, kept; 6xHN, C-terminal, kept) VH: QGQLVQSGAEVKKPGASVKVSCKASGYTFTDYEMHWVRQAPIHGLEWIGVIESETGGTAYNQKYKGRVTITADKSTSTAYMELSSLRSEDTAVYYCAREGITTVATTYYWYFDVWGQGTTVTVSS VL: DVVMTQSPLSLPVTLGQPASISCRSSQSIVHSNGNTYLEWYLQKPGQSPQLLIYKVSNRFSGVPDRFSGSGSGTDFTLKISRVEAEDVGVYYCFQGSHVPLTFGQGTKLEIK
## Result 36.3

## Task // same read-out, input: toripalimab Fab H.S53Y (Fab, V domains shown, heavy chain of Sm3 with this change; numbers count from the chain's first residue; as the light chain of Sm3; source: Brevibacillus, culture supernatant (ammonium sulfate precipitate); not shown: 6xHis, C-terminal, kept; 6xHN, C-terminal, kept) VH: QGQLVQSGAEVKKPGASVKVSCKASGYTFTDYEMHWVRQAPIHGLEWIGVIEYETGGTAYNQKFKGRVTITADKSTSTAYMELSSLRSEDTAVYYCAREGITTVATTYYWYFDVWGQGTTVTVSS VL: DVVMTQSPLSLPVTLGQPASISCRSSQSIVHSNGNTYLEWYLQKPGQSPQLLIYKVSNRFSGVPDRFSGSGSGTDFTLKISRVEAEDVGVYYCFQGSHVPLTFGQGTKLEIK
## Result 187
